This section presents compounds with their documented ED50 values.
Tested on: compound 48/80-induced lethality in rats
Assay: Protection of rats from compound 48/80-induced lethality
Assay type: in vivo
Conditions: Rattus norvegicus, subcutaneous administration (sc)
Please reply with the bare figure in mg/kg and do not write the unit itself.

1) O=[N+]([O-])c1cnccc1NCCN1CCCC(Nc2nc3ccccc3n2Cc2ccc(CO)o2)CC1 (centres unmarked) [Co. No. 4.14, hemihydrate] : 0.04
2) CCn1nnn(CCN2CCC(Nc3nc4ccccc4n3Cc3ccc(CO)o3)CC2)c1=O [3.13] : 0.04

# evaluate next
Qu. // lookup ED50 for Cc1nc2n(c(=O)c1CCN1CCC(Nc3nc4ccccc4n3Cc3ccc(CO)o3)CC1)CCS2 [3.15]
Ans. 0.04

----------
This section presents compounds with their documented ED50 values.
Tested on: compound 48/80-induced lethality in rats
Assay: Protection of rats from compound 48/80-induced lethality
Format: in vivo
Settings: Rattus norvegicus, subcutaneous administration (sc)

Consider the worked cases shown below.
1) CC(C)NC(=O)CCN1CCC(Cc2nc3ccccc3n2Cc2ccc(CO)o2)CC1 : 0.01 mg/kg
2) Cc1nc2sccn2c(=O)c1CCN1CCC(Nc2nc3cccnc3n2Cc2ccc(CO)o2)CC1 : 0.01 mg/kg
3) CC(C)NC(=O)CCN1CCC(Nc2nc3ccccc3n2Cc2ccc(CO)o2)CC1 : 0.04 mg/kg
4) O=c1[nH]c2ccccc2n1CCN1CCC(Nc2nc3ccccc3n2Cc2ccc(CO)o2)CC1 : 0.02 mg/kg

Qu. // lookup ED50 for `Cn1cccc1C(=O)NCCN1CCC(Cc2nc3ccccc3n2Cc2ccc(CO)o2)CC1`
Ans. 0.04 mg/kg

Qu. // lookup ED50 for `Cc1nc2n(c(=O)c1CCN1CCC(Nc3nc4ccccc4n3Cc3ccc(CO)o3)CC1)CCCS2`
Ans. 0.04 mg/kg

Qu. // lookup ED50 for `Cc1nc2n(c(=O)c1CCN1CCC(Cc3nc4cccnc4n3Cc3ccc(CO)o3)CC1)CCCS2`
Ans. 0.04 mg/kg

Qu. // lookup ED50 for `N#CCN1CCC(Nc2nc3ccccc3n2Cc2ccc(CO)o2)CC1`
Ans. 0.04 mg/kg

Qu. // lookup ED50 for `OCc1ccc(Cn2c(NC3CCNCC3)nc3ccccc32)o1`
Ans. 0.04 mg/kg

----------
System: compound 48/80-induced lethality in rats
Assay: Protection of rats from compound 48/80-induced lethality
Assay type: in vivo
Conditions: Rattus norvegicus, subcutaneous administration (sc)
measurement-label: ED50 (mg/kg)
Please reply with the bare figure in mg/kg and do not write the unit itself.

Consider the worked cases shown below.
1) O=C(O)C(=O)O.O=C(O)C(=O)O.O=C(O)C(=O)O.OCc1ccc(Cn2c(CC3CCN(CCNc4cccnn4)CC3)nc3ccccc32)o1 : 0.02
2) Cc1nc2sccn2c(=O)c1CCN1CCC(Cc2nc3ccccc3n2Cc2ccc(CO)o2)CC1 : 0.01
3) O=[N+]([O-])c1cnccc1NCCN1CCC(Nc2nc3ccccc3n2Cc2ccc(CO)o2)CC1 : 0.04

Qu. // lookup ED50 for `OCc1ccc(Cn2c(CC3CCN(CCNc4ncccn4)CC3)nc3ccccc32)o1`
Ans. 0.02

----------
Tested on: compound 48/80-induced lethality in rats
Assay: Protection of rats from compound 48/80-induced lethality
Assay type: in vivo
Details: Rattus norvegicus, subcutaneous administration (sc)
This section presents compounds with their documented ED50 values.
Please reply with the bare figure in mg/kg and do not write the unit itself.

Consider the worked cases shown below.
1) OCc1ccc(Cn2c(CC3CCN(CCc4ccccn4)CC3)nc3cccnc32)o1 [Co. No. 2.35] : 0.02
2) Cc1nc2ccccn2c(=O)c1CCN1CCC(Nc2nc3ccccc3n2Cc2ccc(CO)o2)CC1 [3.17] : 0.04
3) Cc1nc2n(c(=O)c1CCN1CCC(Cc3nc4ccccc4n3Cc3ccc(CO)o3)CC1)CCS2 [1.10] : 0.01
4) O=c1ccc(NCCN2CCC(Cc3nc4ccccc4n3Cc3ccc(CO)o3)CC2)n[nH]1 [Co. No. 1.25] : 0.01
5) Cc1nc2ccccn2c(=O)c1CCN1CCC(Cc2nc3ccccc3n2Cc2ccc(CO)o2)CC1 [1.09] : 0.02
6) CCn1nnn(CCN2CCC(Cc3nc4ccccc4n3Cc3ccc(CO)o3)CC2)c1=O [1.07] : 0.04

Qu. // lookup ED50 for CN1CCC(Nc2nc3ccccc3n2Cc2ccc(CO)o2)CC1 [3.03]
Ans. 0.02

Qu. // lookup ED50 for OCc1ccc(Cn2c(CC3CCN(CCNc4cnccn4)CC3)nc3ccccc32)o1 [1.22]
Ans. 0.04

Qu. // lookup ED50 for Cc1nc2sccn2c(=O)c1CCN1CCC(Nc2nc3cncnc3n2Cc2ccc(CO)o2)CC1 [5.03]
Ans. 0.04

Qu. // lookup ED50 for Cc1cc2nc(C)c(CCN3CCC(Nc4nc5cccnc5n4Cc4ccc(CO)o4)CC3)c(=O)n2o1 [2.32]
Ans. 0.02

Qu. // lookup ED50 for Cc1nc2ccccn2c(=O)c1CCN1CCC(Nc2nc3cccnc3n2Cc2ccc(CO)o2)CC1 [2.10]
Ans. 0.04

Qu. // lookup ED50 for CN1CCC(Nc2nc3cncnc3n2Cc2ccc(CO)o2)CC1 [5.04]
Ans. 0.02

Qu. // lookup ED50 for CN1CCC(Cc2nc3ccccc3n2Cc2ccc(CO)o2)CC1 [Co. No. 1.17]
Ans. 0.04

Qu. // lookup ED50 for COc1ccc(CCN2CCC(Cc3nc4ccccc4n3Cc3ccc(CO)o3)CC2)cc1 [1.11]
Ans. 0.04
